The reported numbers originate from PubChem BioAssay (NCI).

TGI by entry:
# Test system: LOX IMVI melanoma
# assayNotes: NCI tumour cell line growth inhibition, 48 h
measuredParameter: TGI

>>> resultvalue("O=C1OC(c2ccccc2)=N/C1=C\\c1ccc(Br)cc1")
"> 100 µM"
>>> resultvalue("O=C(c1cccc(F)c1F)N1CCc2c([nH]c3ccccc23)C1c1ccc2c(c1)OCO2 (centres undefined)")
"> 100 µM"
>>> resultvalue("COC(=O)C1=C(C(=O)OC)SC(=C(Cl)C(=S)Oc2ccccc2N)S1")
"22.3 µM"
>>> resultvalue("COc1cc(/C=C2\\CCC/C(=C\\c3ccc(OC(=O)CCCCC4CCSS4)c(OC)c3)C2=O)ccc1OC(=O)CCCCC1CCSS1 (centres undefined)")
"> 100 µM"
>>> resultvalue("O=C1CSC2=NC3=C(CSC/C3=C\\c3ccc(Cl)cc3)C(c3ccc(Cl)cc3)N12 (centres undefined)")
"28.7 µM"
>>> resultvalue("CC1(C)COP(=S)(c2ccccn2)O[C@@H]1c1ccccc1 (some centres undefined)")
"> 100 µM"
>>> resultvalue("COc1ccc(/C=c2/s/c(=C(\\C#N)c3nc4ccccc4[nH]3)n(-c3ccccc3)c2=O)cc1")
"> 100 µM"
>>> resultvalue("O=C1C(Br)=C(C2=CC(=P(c3ccccc3)(c3ccccc3)c3ccccc3)C=C2)C(=O)C(Br)=C1C1=CC(=P(c2ccccc2)(c2ccccc2)c2ccccc2)C=C1")
"> 100 µM"
>>> resultvalue("Cn1c(=O)nc2n(-c3cccc(Cl)c3)c3ccccc3nc-2c1=O")
"59.8 µM"
